peptide exchange yield: recorded values
Biological target: T1, HLA-A*03:01 (human)
T1 construct: Peptide-receptive MHC monomer made by UV cleavage of a UV-sensitive peptide
Assay: UV-ligand exchange, anti-b2m ELISA; exchange yield grade (+ >10%, ++ >20%, +++ >50, ++++ >75%)
Excerpt: Candidate peptides for T cell based therapies according to the present invention were further tested for their MHC binding capacity (affinity). The individual peptide-MHC complexes were produced by UV-ligand exchange, where a UV-sensitive peptide is cleaved upon UV-irradiation, and exchanged with the peptide of interest as analyzed. Only peptide candidates that can effectively bind and stabilize the peptide-receptive MHC molecules prevent dissociation of the MHC complexes. […]

binder: ATALSLSNK
peptide exchange yield: 50 to 75%
--
binder: STSHHLVSR
peptide exchange yield: 20 to 50%
--
binder: IIAKKYFFK
peptide exchange yield: 20 to 50%
--
binder: SAFGYVFPK
peptide exchange yield: 50 to 75%
--
binder: TVASLHTEK
peptide exchange yield: 20 to 50%
--
binder: TAYGSTVSK
peptide exchange yield: 50 to 75%
--
binder: RLFESSFHY
peptide exchange yield: 50 to 75%
--
binder: STTKLYLAK
peptide exchange yield: 20 to 50%
--
binder: GTESGTILK
peptide exchange yield: 20 to 50%
--
binder: RMPPPLPTR
peptide exchange yield: 20 to 50%

Data credit: patent US20180291082A1
